- system: ALPP (Homo sapiens, UniProt P05187)
- Sequence (P05187 with tags, fused parts or gaps): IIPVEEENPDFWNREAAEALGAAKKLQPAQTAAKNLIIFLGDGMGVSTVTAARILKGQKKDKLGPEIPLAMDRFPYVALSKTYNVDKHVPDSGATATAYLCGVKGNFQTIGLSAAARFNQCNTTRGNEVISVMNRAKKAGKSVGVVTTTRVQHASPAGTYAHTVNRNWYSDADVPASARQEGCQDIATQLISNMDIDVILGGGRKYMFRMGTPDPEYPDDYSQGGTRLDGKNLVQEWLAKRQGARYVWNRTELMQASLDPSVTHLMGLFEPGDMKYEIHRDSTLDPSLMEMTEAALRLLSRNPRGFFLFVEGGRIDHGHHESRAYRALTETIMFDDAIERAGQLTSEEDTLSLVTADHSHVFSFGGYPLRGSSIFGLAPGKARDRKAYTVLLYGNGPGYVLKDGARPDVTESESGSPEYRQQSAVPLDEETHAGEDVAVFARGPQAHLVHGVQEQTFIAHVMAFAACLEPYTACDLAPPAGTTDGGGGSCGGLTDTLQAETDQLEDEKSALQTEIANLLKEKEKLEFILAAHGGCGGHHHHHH
- measurement_protocol: BLI binding kinetics, human ALPP immobilised on AR2G sensors (KD / KD apparent)
- test_parameters: VHH domains
measured_attribute: hALPP Ka (M⁻¹ s⁻¹)
Field format: number, assumed M⁻¹ s⁻¹, no unit text.

{"molecule": "A08: ALPP targeting VHH domain, SEQ ID NO: 18 (protein) VHH: QVQLVESGGGLVQAGESLRLACAASGTIFSGNAVGWYRQAPEKQREWVSSITDYGDTDYAEAVKGRFTISRDNAKNTVYLQMNSLKPEDTAVYYCYVYQRGESEEYWGQGTKVTVSS", "units_of_measure": "M⁻¹ s⁻¹", "hALPP Ka": 429000}

Exam item: Return hALPP Ka (reported value) for this molecule: D08: ALPP targeting VHH domain, SEQ ID NO: 27 (protein) VHH: QVHLVESGGGSVQAGGSLRLSCAASGPSLSNYAMGWFRQAPGKEREFVAGISWGGGRTSYTDSVKGRFTISRDNAKNTVYLQMNNLKPEDTGVYYCAGRYGRGRNVEYEYDYWGQGTKVTVSS
Marked response: 175000

Exam item: Consider the molecule E10: ALPP/ALPPL2 targeting VHH domain, SEQ ID NO: 31 (protein) VHH: QVQLVESGGGLVQAGGSLRLSCAVSGRALSDYNIGWFRQAPGKEREFVARKTWDGSSTRYDDSVKGRFTVSIEDAKNTAYLQMSSLKTEDTAVYYCAAGRYSRARGWEYDYWGQGTQVTVSS . State its measured hALPP Ka.
Marked response: 54200

Exam item: State its hALPP Ka: D04: ALPP/ALPPL2 targeting VHH domain, SEQ ID NO: 26 (protein) VHH: QVQLVESGGGLVQPGGSLRLSCAASESTFSINVMGWYRQAPGKQRELVATITSGDITNYADSVKGRFTISRDNAENTVYLRTNSLKPEDTAVYYCNARGEYHSGNEYDYWGQGTQVTVSS
Marked response: 85100

Exam item: Read off the recorded hALPP Ka for C05: ALPP targeting VHH domain, SEQ ID NO: 23 (protein) VHH: QVQLVESGGGLVQAGGSLRLSCAASRRSFSEYAMGWFRQAPGKEREFVAAIGWSGVIEYADSVKGRFTISRDNAKDTVYLQMNSLKPEDTAVYYCAAGLGIRVVSQTPAYWGQGTQVTVSS
Marked response: 394000

Exam item: // Input: A12: ALPP targeting VHH domain, SEQ ID NO: 19 (protein) VHH: QVHLVECGGGSVQAGGFLRLSCAASGPSLSNYAMGRFRQAPGKEREFVAGISWGGGRTSYTDSVKGRFTISRDNAKNTVYLQMNNLEPEDTGVYYCAGRYGRGRNVEYEYDYWGQGTKVTVSS . Output its hALPP Ka only.
Marked response: 360000

Exam item: Identify hALPP Ka associated with the molecule B11: ALPP targeting VHH domain, SEQ ID NO: 22 (protein) VHH: QVHLVESGGGSVQAGGSLRLSCAASGPSLSNYAMGWFRQAPGKEREFVAGISWGGGRTSYTDSVKGRFTISRDNAKNTVYLQMNNLKPEDTGVYYCAGRYGRGRNVEYEYDYWGQGTQVTVSS
Marked response: 213000

Exam item: Please look at this molecule and report its hALPP Ka: E12: ALPP targeting VHH domain, SEQ ID NO: 33 (protein) VHH: QVQLVESGGGSVQAGGSLRLSCAASGPSISNFAMGWFRQAPGKEREFVAGISWGGGRTNYLDSVKGRFTISRDNAKNMVHLQMNSLKPEDTTVYYCAGRYGRGRDVEYEYDYWGQGTQVTVSS
Marked response: 39200

Exam item: Return reported hALPP Ka. Input molecule: C07: ALPP/ALPPL2 targeting VHH domain, SEQ ID NO: 25 (protein) VHH: QVQLVESGGGLVQAGESLRLACAASGTIFSGNAVGWYRQAPEKQREWVSSITDYGDTDYAEAVKGRFTISRDNAKNTVYLQMNSLKPEDTAVYYCYVYQRGESEEYWGQGTQVTVSS
Marked response: 129000

Exam item: Name the recorded hALPP Ka of the item D11: ALPP targeting VHH domain, SEQ ID NO: 29 (protein) VHH: QVQLVESGGGSVQAGGSLRLSCAASGPSLSNYAMGWFRQAPGKEREFVAGISWGGGRTSYTDSVKGRFTISRDNAKNTVYLQMNNLKPEDTGVYYCAGRYGRGRNVEYEYDYWGQGTMVTVSS in your answer.
Marked response: 97700

Exam item: Give a short answer stating reported hALPP Ka for E11: ALPP targeting VHH domain, SEQ ID NO: 32 (protein) VHH: QVQLVESGGGSVQAGGSLRLSCAASGPSLSNFAMGWFRQPPGKEREFVAGISWGGGRTSYTDSVKGRFTISRDNAKNTVYLQMNNLKPEDTGVYYCAGRYGRGRNVEYEYDYWGQGTQVTVSS .
Marked response: 149000

Exam item: Give the measured hALPP Ka for A06: ALPP/ALPPL2 targeting VHH domain, SEQ ID NO: 17; tested C-terminally His-tagged (protein, C-terminal His tag, tested C-terminally His-tagged) VHH: QVHLVESGGGLVQAGGSLRLSCAASGRTFLSMGWFRQAPGKEREFVAAISWTGGSTGYADSVKGRFTISRESDKETMYLQMNSLKPEDTAVYYCAARGDVYYGGDDATRYKYWGQGTQVTVSS
Marked response: 117000

// data source = patent US20260216242A1
